target: P-TEFb/AFF4/Tat(1-57) core super elongation complex (CDK9/CycT1/AFF4/Tat) (Homo sapiens (CDK9, CycT1, AFF4)?; HIV-1 (Tat)) (UniProt P50750+O60563+Q9UHB7+P04608); assay: EMSA; settings: 0.5 nM RNA, 0-90 nM complex, 250x yeast tRNA, 6% native gel
pKd: −log10 of the molar value.
Endpoint Name: pKd

{"Query Sequence": "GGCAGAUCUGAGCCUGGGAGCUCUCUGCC [HIV-1 TAR]", "Value Reported": 9.47}

====

molecular target: P-TEFb/AFF4/Tat(1-57) core super elongation complex (CDK9/CycT1/AFF4/Tat) (Homo sapiens (CDK9, CycT1, AFF4)?; HIV-1 (Tat)) (UniProt P50750+O60563+Q9UHB7+P04608); assay: EMSA; conditions: TAR preincubated with 10 nM Palbociclib, 250x yeast tRNA

{"Query Sequence": "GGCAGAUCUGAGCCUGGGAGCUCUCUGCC [HIV-1 TAR]", "Kd": "35.6 nM"}
